molecular target: hSTING (Homo sapiens)
Sequence (Q86WV6 155-341 limits assumed): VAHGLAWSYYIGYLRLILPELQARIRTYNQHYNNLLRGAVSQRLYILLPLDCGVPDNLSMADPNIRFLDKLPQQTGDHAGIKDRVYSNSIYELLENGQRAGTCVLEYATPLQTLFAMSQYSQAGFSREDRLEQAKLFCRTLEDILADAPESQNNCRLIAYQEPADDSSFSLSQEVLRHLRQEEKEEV
pIC50: −log10 of the molar value.
List of pIC50 values.
measurement.name: pIC50

1) Nc1nc2c(ncn2[C@@H]2O[C@@H]3COP(=O)(O)O[C@H]4[C@@H](O)[C@H](n5cnc6c(=O)[nH]c(N)nc65)O[C@@H]4COP(=O)(O)O[C@H]3[C@H]2O)c(=O)[nH]1 :: 5.13
2) Nc1ncnc2c1ncn2[C@@H]1O[C@@H]2COP(=O)(O)O[C@H]3[C@@H](O)[C@H](n4cnc5c(N)ncnc54)O[C@@H]3COP(=O)(O)O[C@H]2[C@H]1O :: 5.13

Measured values drawn from paper PMC8341399 for this set.
